Experiment: toxicity after local administration on the oral mucosa
Type: in vivo
Settings: mice, topical oral mucosa, 29 nmol in 50 μL, 10 min
Reported Endpoint: Globulin
Reply with the number and its unit after it.

Query: Globulin; subject: Cc1cc(C)n2c1C=C1C=CC(CCC(=O)N3CCN(C(=O)c4cc(Cc5n[nH]c(=O)c6ccccc56)ccc4F)CC3)=[N+]1[B-]2(F)F [PARPi-fl]
2.3 g/dL

----------
Tested on: U251 cells
Experiment: MTT assay
Assay type: cell-based
Conditions: U251 glioblastoma cells
Reported Endpoint: IC50 (µM)
Report as a plain number; the unit µM is understood.

Quick one: IC50 for Cc1cc(C)n2c1C=C1C=CC(CCC(=O)N3CCN(C(=O)c4cc(Cc5n[nH]c(=O)c6ccccc56)ccc4F)CC3)=[N+]1[B-]2(F)F ?
5.5

The reported numbers originate from patent US20230065522A1.
